- test_protocol: chemical genetic growth profiling, strain panel (AID 1159580);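 further: tested at 20 µM; growth read once vehicle control cultures reached saturation at 30 °C; 1 = growth at the plate median or of vehicle wells; lower values mean less growth of the strain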
- test_context: S. cerevisiae deletion strains, growth OD, locus YBR229C, strain ROT2, stronger effect = lower value
About 2,000 (36%) of roughly 5,500 compounds were called active. About 18% were inconclusive and are not listed. The list shows a part of the results.
recorded_endpoint: normalized growth

>>> print(df.to_string())
                                   compound  quantitative_readout
0  O=c1[nH]c(=O)n(C2C[C@@H](O)[C@@H](CO)O2)cc1F (some centres not stated)                     1
1  C=CC(C1=CC(=O)C(OC)=CC1=O)c1ccc(O)cc1 (configuration not stated)                 0.945
2  CCN(CC)CCOc1ccc2c(c1)C(=O)c1cc(OCCN(CC)CC)ccc1-2                     1
3                    CSC1=NCN(Cc2ccccc2)CN1                 0.996
4  COc1ccc(C(Cl)=C(c2ccc(OC)cc2)c2ccc(OC)cc2)cc1                  1.01
5     Cc1onc(NC(=O)NC(=O)c2c(F)cccc2Cl)c1Br                 0.996
6  O=C1C=CC2=C3c4cc(O)c(O)cc4CC3(O)COC2=C1O (configuration not stated)                 0.996

* * *

- test_protocol: chemical genetic growth profiling, strain panel (AID 1159580);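 further: tested at 20 µM; growth read once vehicle control cultures reached saturation at 30 °C; 1 = growth at the plate median or of vehicle wells; lower values mean less growth of the strain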
- test_context: S. cerevisiae deletion strains, growth OD, locus YNL322C, strain KRE1 (second series), stronger effect = lower value
Among all 5,500 compounds or so, about 2,000 (36%) were called active. Inconclusive results (about 18%) are left out. This is one part of the list.
recorded_endpoint: normalized growth

>>> df
                                   molecule  quantitative_readout
0            CC(=O)Nc1cc([As](=O)(O)O)ccc1O                 0.992
1  Cc1c(O)c(O)cc2c1CC=C1[C@@]2(C)CC[C@@]2(C)C3C[C@](C)(C(=O)O)CC[C@]3(C)CC[C@]12C (stereo not given in full)                 0.935
2  CCC(Cc1c(I)cc(I)c(N)c1I)C(=O)O (stereo not given)                 0.932
3      O=C(NC(=O)c1c(F)cccc1F)Nc1ccc(Cl)cc1                  1.02
4  CC(C)=CCC/C(C)=C/CC/C(C)=C/CC/C(C)=C/CC/C(C)=C/CC/C(C)=C/CC/C(C)=C/CC/C(C)=C/CC/C(C)=C/CO                 0.982

* * *

Here, each record is paired with measured normalized growth data.
- test_protocol: chemical genetic growth profiling, strain panel (AID 1159580);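 further: tested at 20 µM; growth read once vehicle control cultures reached saturation at 30 °C; 1 = growth at the plate median or of vehicle wells; lower values mean less growth of the strain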
- test_context: S. cerevisiae deletion strains, growth OD, locus YJL164C, strain tpk1, stronger effect = lower value
Out of some 5,500 compounds screened, about 2,000 (36%) were called active. About 18% were inconclusive and are not listed. The list shows a part of the results.
recorded_endpoint: normalized growth

molecule	recorded_endpoint	quantitative_readout
CC(C)NCC(O)c1ccc2ccccc2c1 (centres undefined)	normalized growth	1
Oc1c(Cl)cc(Cl)c2cccnc12	normalized growth	0.062
Nc1ccc([As](=O)(O)O)cc1	normalized growth	1.01
CC1(C)C(C(Cl)Cl)C2(Cl)C(Cl)C(Cl)C1(Cl)C2(Cl)Cl (centres undefined)	normalized growth	0.975
C=CC(C)(O)CC/C=C(\C)CCC=C(C)C (centres undefined)	normalized growth	0.915
Oc1c(Br)cc(Br)c2cccnc12	normalized growth	0.0622
COC(C)(C)CCC[C@H](C)C/C=C/C(C)=C/C(=O)OC(C)C	normalized growth	1
C1CNCCN1	normalized growth	1.01
CCCCC(CC)CN1CN(CC(CC)CCCC)CC(C)(N)C1 (centres undefined)	normalized growth	0.0598
O=C(O)C1=CCNCC1	normalized growth	1.01
CCCCC1=NC2(CCCC2)C(=O)N1Cc1ccc(-c2ccccc2-c2nn[nH]n2)cc1	normalized growth	0.997
CCN(CC)CCNC(=O)c1cc(S(C)(=O)=O)ccc1OC	normalized growth	0.981
C1CCN2CC3CC(CN4CCCCC34)C2C1 (centres undefined)	normalized growth	1.01
C/C=C/c1ccc2c(c1)OCO2	normalized growth	1.01
Oc1ccc(Cl)c2cccnc12	normalized growth	0.0587
COc1cccc(/C=C/C(=O)O)c1C(C)C	normalized growth	0.985
Nc1ccc(S(=O)(=O)Nc2ccc(Cl)nn2)cc1	normalized growth	0.985
O=C1CCCC2C3CC(CN12)[C@@H]1CCCCN1C3 (some centres undefined)	normalized growth	1
C[C@H]1[C@H]2CCC3C4CC=C5C[C@@H](N(C)C)CC[C@]5(C)C4CC[C@@]32CN1C (some centres undefined)	normalized growth	0.996
C=CC(C1=CC(=O)C(OC)=CC1=O)c1ccc(OC)cc1 (centres undefined)	normalized growth	0.759
C=C(C)[C@H]1CC=C(C(=O)O)CC1	normalized growth	0.97
Cc1occc(=O)c1O	normalized growth	0.969
C=C(NC(=O)C(=C)NC(=O)c1csc(C2=NC3c4csc(n4)C4NC(=O)c5csc(n5)C(C(C)(O)C(C)O)NC(=O)C5CSC(=N5)C(=CC)NC(=O)C(C(C)O)NC(=O)c5csc(n5)C3(CC2)NC(=O)C(C)NC(=O)C(=C)NC(=O)C(C)NC(=O)C(C(C)CC)NC2C=Cc3c(C(C)O)cc(nc3C2O)C(=O)OC4C)n1)C(N)=O (centres undefined)	normalized growth	1.01
O=C(O)CCCCC1CCSS1 (centres undefined)	normalized growth	0.967
CC(C)=CCC[C@](C)(O)C1CC=C(C)CC1 (some centres undefined)	normalized growth	1
CCCC1O[C@@H]2CC3C4CCC5=CC(=O)C=CC5(C)C4[C@@H](O)CC3(C)[C@]2(C(=O)CO)O1 (some centres undefined)	normalized growth	1
Nc1ccc(S(=O)(=O)Nc2ccccn2)cc1	normalized growth	0.972
CC1(C)CCCC2(C)C3C1[C@@H](O)C2(C)C[C@H]3O (some centres undefined)	normalized growth	1.01
Cc1c(Nc2ncccc2C(=O)O)cccc1C(F)(F)F	normalized growth	0.97
C1CCN2C[C@@H]3C[C@H](CN4CCCC[C@@H]34)[C@H]2C1	normalized growth	0.997
O=C1C=CC2=C3c4cc(O)c(O)cc4CC3(O)COC2=C1O (centres undefined)	normalized growth	0.968
CC(C)(C)NCC(O)c1ccccc1Cl (centres undefined)	normalized growth	1.01
C=CC(C1=CC(=O)C(OC)=CC1=O)c1ccccc1 (centres undefined)	normalized growth	0.77
CO[C@H]1/C=C/O[C@@]2(C)Oc3c(C)c(O)c4c(O)c(c(/C=N/N5CCN(C)CC5)c(O)c4c3C2=O)NC(=O)/C(C)=C\C=C\C(C)[C@H](O)[C@@H](C)[C@@H](O)[C@@H](C)[C@@H](OC(C)=O)[C@@H]1C (some centres undefined)	normalized growth	1.03
